Tested on: Streptococcus mutans UA159
protocol.text: Checkerboard microplate synergy assay (MIC, Synergy Index by the Kull method)
Assay type: cell-based
experimental.context: S. mutans; THYEB, 48 hours at 37° C., 5% CO2; HPB concentration in the combination with the labelled compound B
Listing: HPB Qa: MIC of compound A (HPB) when used in combination with compound B of selected molecules
test.readout: HPB Qa: MIC of compound A (HPB) when used in combination with compound B

{"molecule": "CC1CCC(C(C)C)C(O)C1 (stereo not shown) [Menthol]", "result.value": "4,000 ppm"}
{"molecule": "Cc1cc(O)ccc1C(C)C [Isopropyl Methylphenol (IPMP), 4-isopropyl-3-methyl phenol]", "result.value": "125 ppm"}
{"molecule": "N=C(NCCCCCCNC(=N)NC(=N)Nc1ccc(Cl)cc1)NC(=N)Nc1ccc(Cl)cc1.O=C(O)[C@H](O)[C@@H](O)[C@H](O)[C@H](O)CO.O=C(O)[C@H](O)[C@@H](O)[C@H](O)[C@H](O)CO [Chlorhexidine digluconate]", "result.value": "4,000 ppm"}
{"molecule": "Cc1ccc(C(C)C)c(O)c1 [Thymol]", "result.value": "4,000 ppm"}
